Biological target: intracellular phosphorylation of EGFR (Tyr1068) in PC-9 cells (Homo sapiens, UniProt P00533, DEL746-750)
Sequence (P00533 with tags, fused parts or gaps DEL746-750): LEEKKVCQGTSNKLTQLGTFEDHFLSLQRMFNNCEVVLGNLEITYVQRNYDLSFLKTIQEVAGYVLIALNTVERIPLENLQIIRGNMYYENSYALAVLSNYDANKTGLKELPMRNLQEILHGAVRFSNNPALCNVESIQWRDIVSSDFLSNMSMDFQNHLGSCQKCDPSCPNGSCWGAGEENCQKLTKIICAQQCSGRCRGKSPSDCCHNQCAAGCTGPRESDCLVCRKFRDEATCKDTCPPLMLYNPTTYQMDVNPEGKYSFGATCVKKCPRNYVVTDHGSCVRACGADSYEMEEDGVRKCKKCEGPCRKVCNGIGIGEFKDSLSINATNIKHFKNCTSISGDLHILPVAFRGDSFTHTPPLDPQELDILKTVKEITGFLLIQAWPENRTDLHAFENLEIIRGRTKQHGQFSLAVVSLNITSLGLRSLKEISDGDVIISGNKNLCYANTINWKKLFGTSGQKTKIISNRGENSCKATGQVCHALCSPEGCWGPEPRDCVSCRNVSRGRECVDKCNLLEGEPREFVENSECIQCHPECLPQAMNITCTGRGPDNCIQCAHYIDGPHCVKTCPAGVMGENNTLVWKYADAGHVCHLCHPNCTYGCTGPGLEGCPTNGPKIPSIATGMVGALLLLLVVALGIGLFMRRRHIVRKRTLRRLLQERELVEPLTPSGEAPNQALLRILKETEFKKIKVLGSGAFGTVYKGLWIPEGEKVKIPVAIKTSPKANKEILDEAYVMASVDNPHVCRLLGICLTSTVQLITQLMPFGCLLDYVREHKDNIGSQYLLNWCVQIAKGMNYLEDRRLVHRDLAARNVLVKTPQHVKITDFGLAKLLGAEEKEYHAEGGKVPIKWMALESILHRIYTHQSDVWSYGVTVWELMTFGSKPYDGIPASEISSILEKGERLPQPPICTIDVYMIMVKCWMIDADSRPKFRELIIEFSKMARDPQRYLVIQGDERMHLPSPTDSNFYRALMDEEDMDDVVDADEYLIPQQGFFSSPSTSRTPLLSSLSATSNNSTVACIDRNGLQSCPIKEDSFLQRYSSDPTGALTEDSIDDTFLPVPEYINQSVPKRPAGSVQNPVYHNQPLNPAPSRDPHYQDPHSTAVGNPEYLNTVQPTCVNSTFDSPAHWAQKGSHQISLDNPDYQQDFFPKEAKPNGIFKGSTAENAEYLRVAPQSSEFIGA
Assay: PC-9 pEGFR AlphaLISA assay
Details: 4 hours incubation, read-out: Phos EGFR PC9 IC50
pIC50: −log10 of the molar value.
measured_metric: pIC50

C[C@@H]1CN(C)CCN1c1cc(O[C@H](C)C2COC2)c2c(Nc3ccc4ncsc4c3F)ncnc2c1 (single isomer, unassigned) [Example 107] | 7.30 to 8.00
CC(C)N1CCC(Oc2cc(-c3cnn(C)c3)cc3ncnc(Nc4ccc5ncsc5c4)c23)C1=O (racemic) | ≥ 8.00
CN1CCC[C@H](Oc2cc(-c3cn(C)n(C(F)F)c3=O)cc3ncnc(Nc4ccc5ncsc5c4)c23)C1 | 7.30 to 8.00
Cn1cc(-c2cc(OC3CCN(CC(F)F)CC3)c3c(Nc4ccc5ncsc5c4)ncnc3c2)cn1 | ≥ 8.00
C[C@@H]1CN(c2cc(O[C@H](C)C3COC3)c3c(Nc4ccc5ncsc5c4F)ncnc3c2)CCN1C (single isomer, unassigned) [Example 103] | ≥ 8.00
C[C@@H](CN(C)C)Oc1cc(-c2cnn(C)c2)cc2ncnc(Nc3ccc4ncsc4c3)c12 (single isomer, unassigned) [Example 159] | 7.30 to 8.00
C[C@H](CN(C)C)Oc1cc(-c2cnn(C)c2)cc2ncnc(Nc3ccc4ncsc4c3F)c12 | ≥ 8.00
CN1C[C@H](F)C[C@@H](Oc2cc(-c3cnn(C)c3)cc3ncnc(Nc4ccc5ncsc5c4)c23)C1 (single isomer, unassigned) | 7.30 to 8.00
CN1CCC[C@H](Oc2cc(-c3cnn(C)c3)cc3ncnc(Nc4ccc5ncsc5c4F)c23)C1 | ≥ 8.00
Cn1cc(-c2cc(O[C@@H]3CNC[C@@H]3F)c3c(Nc4ccc5ncsc5c4)ncnc3c2)cn1 (racemic) | < 7.30

*Q* For COc1cc2ncnc(Nc3ccc4ncsc4c3)c2cc1-c1cnn(CC2CCN(C)CC2)c1 , what is its reported pIC50?
*A* 7.30 to 8.00

====

Parameter IC50: see the listing below.
Biological target: EGFR L858R (Homo sapiens, UniProt P00533, L858R)
Construct: purchased SignalChem E10-122BG
Sequence (P00533 25-1210 L858R): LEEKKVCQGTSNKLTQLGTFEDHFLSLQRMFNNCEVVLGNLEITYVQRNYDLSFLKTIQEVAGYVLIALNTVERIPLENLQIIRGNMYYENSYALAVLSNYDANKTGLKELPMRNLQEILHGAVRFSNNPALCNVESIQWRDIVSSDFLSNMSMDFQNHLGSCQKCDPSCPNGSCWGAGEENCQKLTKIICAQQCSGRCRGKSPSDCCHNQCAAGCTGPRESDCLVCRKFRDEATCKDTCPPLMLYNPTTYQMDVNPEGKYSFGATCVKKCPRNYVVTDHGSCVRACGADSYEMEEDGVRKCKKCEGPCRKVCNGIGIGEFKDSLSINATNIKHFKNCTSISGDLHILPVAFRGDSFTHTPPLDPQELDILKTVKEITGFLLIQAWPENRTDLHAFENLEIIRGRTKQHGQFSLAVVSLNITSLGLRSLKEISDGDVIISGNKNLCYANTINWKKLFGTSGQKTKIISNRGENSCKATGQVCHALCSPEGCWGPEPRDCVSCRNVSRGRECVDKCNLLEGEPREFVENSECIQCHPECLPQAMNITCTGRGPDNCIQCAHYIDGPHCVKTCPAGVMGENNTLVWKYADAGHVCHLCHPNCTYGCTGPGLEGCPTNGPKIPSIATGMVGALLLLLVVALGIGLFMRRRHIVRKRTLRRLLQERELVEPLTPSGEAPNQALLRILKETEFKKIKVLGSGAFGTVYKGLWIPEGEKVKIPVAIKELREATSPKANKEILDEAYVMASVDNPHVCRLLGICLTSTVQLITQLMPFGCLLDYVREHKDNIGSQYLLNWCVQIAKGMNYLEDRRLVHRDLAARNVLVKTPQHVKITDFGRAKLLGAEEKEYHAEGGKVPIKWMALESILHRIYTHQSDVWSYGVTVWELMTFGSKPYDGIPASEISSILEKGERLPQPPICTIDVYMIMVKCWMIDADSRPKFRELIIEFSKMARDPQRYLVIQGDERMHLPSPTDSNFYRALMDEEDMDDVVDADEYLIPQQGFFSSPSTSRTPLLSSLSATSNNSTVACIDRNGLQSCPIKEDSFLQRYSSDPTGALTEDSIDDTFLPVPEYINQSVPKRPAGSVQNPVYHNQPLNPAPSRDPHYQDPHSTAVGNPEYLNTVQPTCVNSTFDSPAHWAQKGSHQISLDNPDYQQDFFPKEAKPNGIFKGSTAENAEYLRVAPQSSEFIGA
Assay: Biochemical EGFR inhibition assay (Caliper mobility shift), EGFR L858R
Conditions: biochemical Caliper mobility shift assay, EGFR L858R enzyme; read-out: Enz EGFR L858R IC50

// below: answered compounds
C[C@@H](Oc1cc(N2CCN(C)[C@@H](C)C2)cc2ncnc(Nc3ccc4ncsc4c3F)c12)C1COC1 (single isomer, unassigned) [Example 98] | ≤ 10 nM
CN1CC[C@@](C)(COc2cc(-c3cnn(C)c3)cc3ncnc(Nc4ccc5ncsc5c4)c23)C1=O (single isomer, unassigned) [Example 55] | ≤ 10 nM

*Q* For C[C@@H](Oc1c(F)c(-c2cnn(C)c2)cc2ncnc(Nc3ccc4ncsc4c3F)c12)C1COC1 (single isomer, unassigned) [Example A28] , what is its reported IC50?
*A* 10.1 to 50 nM

====

Target: EGFR L858R (Homo sapiens, UniProt P00533, L858R)
Construct: purchased SignalChem E10-122BG
Experiment: Biochemical EGFR inhibition assay (Caliper mobility shift), EGFR L858R
Details: biochemical Caliper mobility shift assay, EGFR L858R enzyme; read-out: Enz EGFR L858R IC50
measured_metric: IC50

CO[C@@H]1CCN(C)C[C@H]1Oc1cc(-c2cnn(C)c2)cc2ncnc(Nc3ccc4ncsc4c3)c12 (single isomer, unassigned) [Example A39] | 10.1 to 50 nM
COc1cc2ncnc(Nc3ccc4ncsc4c3)c2cc1-c1cnn([C@H]2CCN(C)C[C@@H]2F)c1 (racemic) | ≤ 10 nM
Cn1cc(-c2cc3ncnc(Nc4ccc5ncsc5c4F)c3cc2OC2CCOC2)cn1 (stereo not shown) | ≤ 10 nM
COc1cc2ncnc(Nc3ccc4ncsc4c3)c2cc1-c1cnn([C@@H]2CCN(C)C[C@@H]2F)c1 (racemic) | ≤ 10 nM
C[C@H]1COCC[C@@H]1Oc1cc(-c2cnn(C)c2)cc2ncnc(Nc3ccc4ncsc4c3)c12 (racemic) | ≤ 10 nM
CC(Oc1cc(N2CCN(C)C3CC32)cc2ncnc(Nc3ccc4ncsc4c3)c12)C1COC1 (stereo not shown) | 10.1 to 50 nM

# next compound below
*Q* For CCN1CC[C@H](Oc2cc(-c3cnn(C)c3)cc3ncnc(Nc4ccc5ncsc5c4)c23)C1=O (single isomer, unassigned) [Example 60] , what is its reported IC50?
*A* ≤ 10 nM

====

Parameter IC50: see the listing below.
Molecular target: EGFR L858R (Homo sapiens, UniProt P00533, L858R)
Construct: purchased SignalChem E10-122BG
Assay: Biochemical EGFR inhibition assay (Caliper mobility shift), EGFR L858R
Conditions: biochemical Caliper mobility shift assay, EGFR L858R enzyme; read-out: Enz EGFR L858R IC50

// below: answered molecules
C[C@@H](Oc1cc(-c2cnn(C)c2)cc2ncnc(Nc3ccc4ncsc4c3)c12)[C@H]1CNCCO1 (single isomer, unassigned) [Example 207] | ≤ 10 nM
CO[C@H]1COC[C@@H]1Oc1cc(-c2cnn(C)c2)cc2ncnc(Nc3ccc4ncsc4c3)c12 (single isomer, unassigned) [Example A32] | 10.1 to 50 nM
C[C@@H](Oc1cc(-c2cnn(C)c2)cc2ncnc(Nc3ccc4ncsc4c3)c12)[C@H](C)N(C)C (single isomer, unassigned) [Example 145] | ≤ 10 nM
C[C@H]1CN(C)CCN1C(=O)Nc1cc2c(Nc3ccc4ncsc4c3)ncnc2cc1-c1ccn(C)n1 [Example 399] | ≤ 10 nM
CN1CC[C@@H](F)[C@@H](Oc2cc(-c3cnn(C)c3)cc3ncnc(Nc4ccc5ncsc5c4)c23)C1 (single isomer, unassigned) [Example 161] | ≤ 10 nM

*Q* For COc1nn(C)cc1-c1cc(O[C@@H](C)C(=O)N(C)C)c2c(Nc3ccc4ncsc4c3F)ncnc2c1 (single isomer, unassigned) [Example 288] , what is its reported IC50?
*A* ≤ 10 nM

====

Molecular target: EGFR (d746-750) (Homo sapiens, UniProt P00533, DEL746-750)
Construct: purchased SignalChem E10-122JG
Test: Biochemical EGFR inhibition assay (Caliper mobility shift), EGFR (d746-750)
Conditions: biochemical Caliper mobility shift assay, EGFR Exon 19-del enzyme; read-out: Enz EGFR Exon 19-del IC50
pIC50: −log10 of the molar value.
Parameter pIC50: see the listing below.

// below: answered compounds
CO[C@@H]1CCN(C)C[C@H]1Oc1cc(-c2cnn(C)c2)cc2ncnc(Nc3ccc4ncsc4c3)c12 (single isomer, unassigned) [Example A40] | ≥ 8.00
Cn1cc(-c2cc(OC3CCCOC3)c3c(Nc4ccc5ncsc5c4)ncnc3c2)cn1 (single isomer, unassigned) [Example 7] | ≥ 8.00
CN1CCN(CCOc2cc(OC3CCOCC3)c3c(Nc4ccc5ncsc5c4)ncnc3c2)CC1 | ≥ 8.00
C[C@@H](Oc1cc(-c2cnn(C)c2)cc2ncnc(Nc3ccc4ncsc4c3F)c12)[C@H]1CCCO1 | ≥ 8.00
CC(C)N1CC[C@@H](Oc2cc(-c3cnn(C)c3)cc3ncnc(Nc4ccc5ncsc5c4)c23)C1=O (single isomer, unassigned) [Example 64] | ≥ 8.00
COC[C@@H](C)Oc1cc(N2CCN(C)C[C@H]2C)cc2ncnc(Nc3ccc4ncsc4c3)c12 (single isomer, unassigned) [Example 211] | 7.30 to 8.00
CN1CCN(CC#Cc2cc(OC3CCOCC3)c3c(Nc4ccc5ncsc5c4F)ncnc3c2)CC1 | 7.30 to 8.00
C[C@H]1[C@H](Oc2cc(-c3cnn(C)c3)cc3ncnc(Nc4ccc5ncsc5c4)c23)CN1C (single isomer, unassigned) [Example 321] | ≥ 8.00

*Q* Record lookup: for EGFR (d746-750) (Homo sapiens, UniProt P00533, DEL746-750), what pIC50 belongs to COc1cc2ncnc(Nc3ccc4ncsc4c3F)c2cc1-c1cnn(C2CCN(C)CC2)c1 ?
*A* ≥ 8.00

*Q* Record lookup: for EGFR (d746-750) (Homo sapiens, UniProt P00533, DEL746-750), what pIC50 belongs to Cn1cc(-c2cc(O[C@H]3COC[C@@H]3O)c3c(Nc4ccc5ncsc5c4)ncnc3c2)cn1 (single isomer, unassigned) [Example A30] ?
*A* ≥ 8.00

*Q* Record lookup: for EGFR (d746-750) (Homo sapiens, UniProt P00533, DEL746-750), what pIC50 belongs to CN1CCC(Oc2cc(-c3cnn(C)c3)cc3ncnc(Nc4ccc5scnc5c4)c23)CC1 ?
*A* ≥ 8.00

*Q* Record lookup: for EGFR (d746-750) (Homo sapiens, UniProt P00533, DEL746-750), what pIC50 belongs to Cn1cc(-c2cc(O[C@H]3CCOC[C@@H]3F)c3c(Nc4ccc5ncsc5c4)ncnc3c2)cn1 (single isomer, unassigned) [Example 45] ?
*A* ≥ 8.00

*Q* Record lookup: for EGFR (d746-750) (Homo sapiens, UniProt P00533, DEL746-750), what pIC50 belongs to CN1CCC2(COC2)[C@H](Oc2cc(-c3cnn(C)c3)cc3ncnc(Nc4ccc5ncsc5c4)c23)C1 (single isomer, unassigned) [Example 353] ?
*A* ≥ 8.00

*Q* Record lookup: for EGFR (d746-750) (Homo sapiens, UniProt P00533, DEL746-750), what pIC50 belongs to CN1CC[C@H](Oc2cc(-c3cnn(C)c3)cc3ncnc(Nc4ccc5ncsc5c4)c23)C1=O (single isomer, unassigned) [Example 24] ?
*A* ≥ 8.00

*Q* Record lookup: for EGFR (d746-750) (Homo sapiens, UniProt P00533, DEL746-750), what pIC50 belongs to Cn1cc(-c2cc(OC3COC3)c3c(Nc4ccc5ncsc5c4)ncnc3c2)cn1 ?
*A* ≥ 8.00

src = patent US20260207602A1
